Consider the following compounds and their measured NUCLEATED RED BLOOD CELLS readings.
species on record: Rattus norvegicus; experiment: DrugMatrix - Regimen: Daily Repeat; assay type: toxicity, organism-based, Sprague-Dawley; set-up: regimen Daily Repeat, gender Male, age 6-8 weeks; details: in vivo, po, 0 mg/kg, 120 h, tissue Blood, route oral GAVAGE, dose level Control, time 5 day, vehicle .5 % CMC

Item: C[C@H]1[C@H](NC(=O)/C(=N\OC(C)(C)C(=O)O)c2csc(N)n2)C(=O)N1S(=O)(=O)O | NUCLEATED RED BLOOD CELLS: 0.17 /100WBC

Item: COc1ccccc1[N+](=O)[O-] | NUCLEATED RED BLOOD CELLS: 0 /100WBC

Item: CCC1=C(C)CN(C(=O)NCCc2ccc(S(=O)(=O)NC(=O)N[C@H]3CC[C@H](C)CC3)cc2)C1=O [GLIMEPIRIDE] | NUCLEATED RED BLOOD CELLS: 0 /100WBC

Item: COc1cc(OC)c(C(=O)CCCN2CCCC2)c(OC)c1 | NUCLEATED RED BLOOD CELLS: 0 /100WBC

###

organism: Rattus norvegicus; assay: DrugMatrix - Regimen: Daily Repeat; format: toxicity, organism-based, Sprague-Dawley; set-up: regimen Daily Repeat, gender Male, age 6-8 weeks; settings: in vivo, po, 0 mg/kg, 72 h, tissue Blood, route oral GAVAGE, dose level Control, time 3 day, vehicle .5 % CMC
READOUT TYPE: MEAN CORPUSCULAR HEMOGLOBIN (pg)
Unit pg implied. Number only.

Use the examples below as a reference point.
INSERT INTO measurements (molecule, endpoint_value) VALUES
  ('C[C@@](Cc1ccc(O)c(O)c1)(NN)C(=O)O.O [CARBIDOPA]', 23.37),
  ('C[C@@H]1O[C@@H](O[C@H]2C[C@@H](O)[C@]3(CO)[C@H]4[C@H](O)C[C@]5(C)[C@@H](C6=CC(=O)OC6)CC[C@]5(O)[C@@H]4CC[C@]3(O)C2)[C@H](O)[C@H](O)[C@H]1O [OUABAIN]', 24.45),
  ('CN1C(=O)CN=C(c2ccccc2)c2cc([N+](=O)[O-])ccc21 [NIMETAZEPAM]', 19.57),
  ('CCn1cc(C(=O)O)c(=O)c2cc(F)c(N3CCNC(C)C3)c(F)c21 (configuration not stated) [LOMEFLOXACIN]', 21.9),
  ('CCCNC(=O)NS(=O)(=O)c1ccc(Cl)cc1 [CHLORPROPAMIDE]', 24.1);

Item: CCC1=C(C)CN(C(=O)NCCc2ccc(S(=O)(=O)NC(=O)N[C@H]3CC[C@H](C)CC3)cc2)C1=O [GLIMEPIRIDE] | MEAN CORPUSCULAR HEMOGLOBIN: 25.1

Item: C[C@H]1[C@H](NC(=O)/C(=N\OC(C)(C)C(=O)O)c2csc(N)n2)C(=O)N1S(=O)(=O)O [AZTREONAM] | MEAN CORPUSCULAR HEMOGLOBIN: 23.37

Item: CN1CCN(C2=Nc3cc(Cl)ccc3Nc3ccccc32)CC1 [CLOZAPINE] | MEAN CORPUSCULAR HEMOGLOBIN: 24.1

Item: CCOc1nc2cccc(C(=O)O)c2n1Cc1ccc(-c2ccccc2-c2nnn[nH]2)cc1 | MEAN CORPUSCULAR HEMOGLOBIN: 25

Item: C#C[C@]1(O)CC[C@H]2[C@@H]3CCC4=CC(=O)CC[C@]4(C)[C@H]3CC[C@@]21C [ETHISTERONE] | MEAN CORPUSCULAR HEMOGLOBIN: 19.72

Item: COc1ccccc1[N+](=O)[O-] [2-NITROANISOLE] | MEAN CORPUSCULAR HEMOGLOBIN: 22.93

Item: CCCCC1=NC2(CCCC2)C(=O)N1Cc1ccc(-c2ccccc2-c2nnn[nH]2)cc1 [IRBESARTAN] | MEAN CORPUSCULAR HEMOGLOBIN: 20.35

###

species on record: Rattus norvegicus; assay: DrugMatrix - Regimen: Daily Repeat; assay type: toxicity, organism-based, Sprague-Dawley; parameters: regimen Daily Repeat, gender Male, age 6-8 weeks; details: in vivo, po, 0 mg/kg, 72 h, tissue Blood, route oral GAVAGE, dose level Control, time 3 day, vehicle 100 % SALINE
READOUT TYPE: ABSOLUTE MONOCYTE (cells/µL)
Unit cells/µL implied. Number only.

Item: COc1cccc2c1C(=O)c1c(O)c3c(c(O)c1C2=O)C[C@@](O)(C(C)=O)C[C@@H]3O[C@H]1C[C@H](N)[C@H](O)[C@H](C)O1 | ABSOLUTE MONOCYTE: 160

###

species on record: Rattus norvegicus; assay: DrugMatrix - Regimen: Daily Repeat; assay type: toxicity, organism-based, Sprague-Dawley; design: regimen Daily Repeat, gender Male, age 6-8 weeks; conditions: in vivo, po, 0 mg/kg, […], tissue Blood, route oral GAVAGE, dose level Control, time 14 day, vehicle 100 % SALINE
READOUT TYPE: ABSOLUTE MONOCYTE
Report field: quantity (unit follows the number).

Item: COc1cccc2c1C(=O)c1c(O)c3c(c(O)c1C2=O)C[C@@](O)(C(C)=O)C[C@@H]3O[C@H]1C[C@H](N)[C@H](O)[C@H](C)O1 [DAUNORUBICIN] | ABSOLUTE MONOCYTE: 170 cells/µL

###

organism: Rattus norvegicus; test: DrugMatrix - Regimen: Daily Repeat; assay type: toxicity, organism-based, Sprague-Dawley; parameters: regimen Daily Repeat, gender Male, age 6-8 weeks; conditions: in vivo, po, 0 mg/kg, 120 h, tissue Plasma, route oral GAVAGE, dose level Control, time 5 day, vehicle .5 % CMC
READOUT TYPE: PHOSPHORUS (mg/dL)
Unit mg/dL implied. Number only.

INSERT INTO results (compound, readout_type, endpoint_value) VALUES
  ('CCCNC(=O)NS(=O)(=O)c1ccc(Cl)cc1 [CHLORPROPAMIDE]', 'PHOSPHORUS', 10.03),
  ('C[C@H]1[C@H](NC(=O)/C(=N\OC(C)(C)C(=O)O)c2csc(N)n2)C(=O)N1S(=O)(=O)O', 'PHOSPHORUS', 11.48);

Item: COc1ccc2c(c1OC)C(=O)O[C@@H]2[C@H]1c2c(cc3c(c2OC)OCO3)CCN1C | PHOSPHORUS: 12.07

Item: C[C@@H]1O[C@@H](O[C@H]2C[C@@H](O)[C@]3(CO)[C@H]4[C@H](O)C[C@]5(C)[C@@H](C6=CC(=O)OC6)CC[C@]5(O)[C@@H]4CC[C@]3(O)C2)[C@H](O)[C@H](O)[C@H]1O | PHOSPHORUS: 11.17

Item: C[C@]12CC[C@@H]3c4ccc(O)cc4CC[C@H]3[C@@H]1C[C@@H](O)[C@@H]2O | PHOSPHORUS: 11.87

Item: COc1cc(OC)c(C(=O)CCCN2CCCC2)c(OC)c1 | PHOSPHORUS: 12.32

Item: C[C@@](Cc1ccc(O)c(O)c1)(NN)C(=O)O.O | PHOSPHORUS: 11.48

Item: CN1CCN(C2=Nc3cc(Cl)ccc3Nc3ccccc32)CC1 | PHOSPHORUS: 10.03

###

organism: Rattus norvegicus; assay: DrugMatrix - Regimen: Daily Repeat; format: toxicity, organism-based, Sprague-Dawley; design: regimen Daily Repeat, gender Male, age 6-8 weeks; conditions: in vivo, po, 0 mg/kg, 120 h, tissue Plasma, route oral GAVAGE, dose level Control, time 5 day, […]
READOUT TYPE: CHOLESTEROL (mg/dL)
Unit mg/dL implied. Number only.

Use the examples below as a reference point.
INSERT INTO assay_data (compound, endpoint_value) VALUES
  ('O=c1c(-c2ccc(O)cc2)coc2cc(O)cc(O)c12', 68.83),
  ('CS(=O)(=O)Nc1ccc([N+](=O)[O-])cc1Oc1ccccc1 [NIMESULIDE]', 65.67),
  ('CCc1ccc(CCOc2ccc(CC3SC(=O)NC3=O)cc2)nc1 (configuration not stated)', 70.33),
  ('c1ccoc1', 72);

Item: CCCCC(=O)N(Cc1ccc(-c2ccccc2-c2nnn[nH]2)cc1)[C@H](C(=O)O)C(C)C | CHOLESTEROL: 56.5

Item: CC(=O)Oc1ccccc1C(=O)O | CHOLESTEROL: 66.83

Item: CC(C)c1c(C(=O)Nc2ccccc2)c(-c2ccccc2)c(-c2ccc(F)cc2)n1CC[C@@H](O)C[C@@H](O)CC(=O)O | CHOLESTEROL: 68.83

###

organism: Rattus norvegicus; assay: DrugMatrix - Regimen: Daily Repeat; type: toxicity, organism-based, Sprague-Dawley; design: regimen Daily Repeat, gender Male, age 6-8 weeks; settings: in vivo, po, 0 mg/kg, 72 h, tissue Plasma, route oral GAVAGE, dose level Control, time 3 day, vehicle .5 % CMC
READOUT TYPE: GLUCOSE (mg/dL)
Unit mg/dL implied. Number only.

Use the examples below as a reference point.
INSERT INTO measurements (molecule, endpoint_value) VALUES
  ('CCn1cc(C(=O)O)c(=O)c2cc(F)c(N3CCNC(C)C3)c(F)c21 (stereo not drawn) [LOMEFLOXACIN]', 172.5),
  ('COc1ccccc1[N+](=O)[O-] [2-NITROANISOLE]', 141.67),
  ('COc1cc(OC)c(C(=O)CCCN2CCCC2)c(OC)c1 [BUFLOMEDIL]', 164);

Item: C[C@H]1[C@H](NC(=O)/C(=N\OC(C)(C)C(=O)O)c2csc(N)n2)C(=O)N1S(=O)(=O)O [AZTREONAM] | GLUCOSE: 171.33

Item: C[C@@H]1O[C@@H](O[C@H]2C[C@@H](O)[C@]3(CO)[C@H]4[C@H](O)C[C@]5(C)[C@@H](C6=CC(=O)OC6)CC[C@]5(O)[C@@H]4CC[C@]3(O)C2)[C@H](O)[C@H](O)[C@H]1O [OUABAIN] | GLUCOSE: 181.67
